- Tested on: HCC-2998 colon
- measurement.protocol: NCI tumour cell line growth inhibition, 48 h
readout.kind: TGI (µM)

INSERT INTO measurements (compound, readout_kind, sign, readout_number) VALUES
  ('COC(=O)C1Cc2ccc3c(c2C1=O)CCCC3 (stereo unspecified)', 'TGI', '>', 100),
  ('CCc1ccc(C(=Nc2ccc(N(C)C(=O)CN3CCN(C)CC3)cc2)c2c(O)[nH]c3ccc(C(=O)OC)cc23)cc1', 'TGI', '=', 1.95),
  ('N#CC1(C#N)C2C=CC(c3coc4cccc2c34)C1(C#N)C#N (stereo unspecified)', 'TGI', '=', 30),
  ('O=C1OC(C2(O)OC(=O)c3ccccc32)c2ccccc21 (stereo unspecified)', 'TGI', '>', 100),
  ('CC(C)(C)OC(=O)NCCCC(=O)NC1(c2cc3ccccc3s2)CCCCC1', 'TGI', '=', 48.5),
  ('CCOc1ccccc1-c1nc2c(s1)C(=O)c1ccccc1C2=O', 'TGI', '=', 29.5);

* * *

- Tested on: EKVX NSCLC
- measurement.protocol: NCI tumour cell line growth inhibition, 48 h
The entries below are paired with their reported TGI.
readout.kind: TGI (µM)

INSERT INTO measurements (molecule, readout_kind, quantity_unit, sign, readout_number) VALUES
  ('CCCCCCCCCCCCCCCCCCOCC(CCP(=O)(CP(=O)(O)O)Oc1ccccc1)OCCCCCCCCCCCCCCCCCC (stereo not given)', 'TGI', 'µM', '>', 100),
  ('O=C(N/N=C/c1ccc(O)cc1O)c1cccc(Nc2ccnc(C(F)(F)F)c2)c1', 'TGI', 'µM', '=', 37.3),
  ('Nc1ccc(-c2cccs2)cc1NC(=O)c1ccc(CCCC(=O)Nc2ccc(C3CC3N)cc2)cc1 (stereo not given)', 'TGI', 'µM', '>', 100),
  ('Cc1cc2c(C(N)=O)c(N)n(-c3c(C)ccc(O)c3C)c2nc1C', 'TGI', 'µM', '=', 98.7),
  ('O=C1OC(C2(O)OC(=O)c3ccccc32)c2ccccc21 (stereo not given)', 'TGI', 'µM', '>', 100);

* * *

- Tested on: HCT-15 colon
- measurement.protocol: NCI tumour cell line growth inhibition, 48 h
readout.kind: TGI

INSERT INTO measurements (compound, result) VALUES
  ('CCOC(=O)C#Cc1c(C(=O)OCC)nnn1Cc1ccc([N+](=O)[O-])cc1', '3.29 µM'),
  ('CN1C(=O)C(O)CC1c1ccccc1C(F)(F)F (stereo not given)', '> 100 µM'),
  ('CN=C(N)c1ccc(N=C(N)c2ccc(C(N)=Nc3ccc(C(N)=NC)cc3)cc2)cc1', '> 100 µM'),
  ('O=C(NO)[C@@H](Cc1ccccc1)NS(=O)(=O)c1ccc(-c2ccccc2)cc1', '> 25 µM'),
  ('CCN(CC)c1ccc2nc3ccc(N=Nc4c(O)ccc5ccccc45)cc3[n+](-c3ccccc3)c2c1', '> 100 µM');

* * *

- System: SF-268 CNS
- measurement.protocol: NCI tumour cell line growth inhibition, 48 h; in the data active means GI50 below about 0.43 µM; inactive means the rest
Outcomes: yes (1) (active), no (0) (inactive)

INSERT INTO measurements (molecule, qualitative_label) VALUES
  ('Nc1ccc(-c2cccs2)cc1NC(=O)c1ccc(CCCC(=O)Nc2ccc(C3CC3N)cc2)cc1 (centres undefined)', 'no (0)'),
  ('NS(=O)(=O)NCCNc1nonc1C(=Nc1ccc(F)c(Br)c1)NO', 'no (0)'),
  ('C/C(=C\c1cc(C(F)(F)F)n(-c2ccc(N)cc2)n1)[C@@H]1C[C@@H]2O[C@]2(C)CCC[C@H](C)[C@H](O)[C@@H](C)C(=O)C(C)(C)[C@@H](O)CC(=O)O1', 'yes (1)'),
  ('O=C(NO)[C@@H](Cc1ccccc1)NS(=O)(=O)c1ccc(-c2ccccc2)cc1', 'no (0)'),
  ('Oc1ccc(C2c3ccccc3Oc3ccccc32)c2cccnc12', 'no (0)'),
  ('CCOC(=O)c1cc(-c2ccccc2)[nH]c1N/N=C/c1ccc(Cl)cc1', 'no (0)'),
  ('COc1ccc2c(c1)C(=O)/C(=C/c1ccc([N+](=O)[O-])o1)O2', 'no (0)'),
  ('CN(C)CCNc1c2ccccc2nc2oc3ccccc3c12', 'no (0)'),
  ('O=C1/C(=C/c2ccc(Cl)cc2)CCC/C1=C\c1ccc(Cl)cc1', 'no (0)'),
  ('CN(CC(=O)Nc1nc2ccccc2[nH]1)S(=O)(=O)c1ccc(Cl)cc1', 'no (0)'),
  ('O=c1cc(-c2ccco2)[nH]c2cc3c(cc12)OCO3', 'no (0)'),
  ('CCc1ccc(C(=Nc2ccc(N(C)C(=O)CN3CCN(C)CC3)cc2)c2c(O)[nH]c3ccc(C(=O)OC)cc23)cc1', 'no (0)'),
  ('O=C(/C=C/C12c3ccccc3C(c3ccccc31)C1C(=O)NC(=O)C12)c1ccc(F)cc1 (centres undefined)', 'no (0)'),
  ('CC(=O)O[C@H]1[C@@H]2OC(=O)C(CSc3ccccc3)[C@@H]2C[C@H]2O[C@]2(C)CC/C=C(\C)CCC[C@@H]1C (some centres undefined)', 'no (0)'),
  ('O=C1c2ccccc2-c2c1c1c(O)cccc1n2Cc1ccccn1', 'no (0)'),
  ('O=C(Nc1cccc(Cl)c1)c1cccc(NC2=C(Cl)C(=O)N(Cc3ccccc3)C2=O)c1', 'no (0)'),
  ('CCC(=O)Nc1ccc(C)c(-c2ccc(C(=O)NCC3CC3)cc2)c1', 'no (0)'),
  ('Clc1ccccc1CNc1c2ccccc2nc2ccccc12', 'no (0)'),
  ('CCOC(=O)C1=C(C)N(Cc2ccc(Cl)cc2Cl)C2(O)C=CC(=O)C3=C(O)c4ccccc4C(=O)C312 (centres undefined)', 'no (0)');

* * *

- System: UACC-62 melanoma
- measurement.protocol: NCI tumour cell line growth inhibition, 48 h
Each entry below lists one item and its recorded TGI value.
readout.kind: TGI

INSERT INTO measurements (molecule, study_target, readout_kind, result) VALUES
  ('CC(C(N)C(=O)NC(C(=O)O)C1OC(n2ccc(=O)[nH]c2=O)C(O)C1O)C(O)c1ccc(O)cn1 (stereo not given)', 'UACC-62 melanoma', 'TGI', '> 100 µM'),
  ('NS(=O)(=O)CC1CC[CH-]CC1.[Cl-].[Cl-].[Cl-].[Cl-].[Cl-].[Sb+5].c1ccncc1', 'UACC-62 melanoma', 'TGI', '> 100 µM'),
  ('Cc1ccc(NC(=O)CSc2nnc3n(Cc4ccccc4)c(=O)c4c(C)c(C(N)=O)sc4n23)cc1', 'UACC-62 melanoma', 'TGI', '> 100 µM'),
  ('C[C@]12CC[C@@H]3c4ccc(O)cc4CC[C@H]3[C@@H]1CC[C@@H]2OC(=O)CCc1ccccc1', 'UACC-62 melanoma', 'TGI', '28.8 µM'),
  ('C/C(=N\NC(=S)SCc1ccccc1)c1ccccn1', 'UACC-62 melanoma', 'TGI', '4.69 µM'),
  ('COC(=O)[C@H]1COC(=O)N1', 'UACC-62 melanoma', 'TGI', '> 100 µM'),
  ('Cc1ccc(OCC2OC(n3cnc4c(Cl)nc(Cl)nc43)CC2Oc2ccc(C)cc2)cc1 (stereo not given)', 'UACC-62 melanoma', 'TGI', '4.1 µM'),
  ('CCNC12CCC(C1)C(C)(C)C2=O (stereo not given)', 'UACC-62 melanoma', 'TGI', '> 100 µM'),
  ('COC(=O)C1=C(C)NC(C)=C(C(=O)OC)C1c1ccc(N=O)cc1', 'UACC-62 melanoma', 'TGI', '30 µM'),
  ('CN(C)c1ccc(C2CC(c3ccc4ccccc4c3O)=NN2c2ccc([N+](=O)[O-])cc2[N+](=O)[O-])cc1 (stereo not given)', 'UACC-62 melanoma', 'TGI', '37.2 µM'),
  ('CN1CCN(c2ccc(NC(=O)c3cncnc3Nc3ccc(OCc4ccccn4)c(Cl)c3)cc2)CC1', 'UACC-62 melanoma', 'TGI', '1.42 µM'),
  ('N#CC(C#N)N=Nc1ccc(-c2nc3ccccc3o2)cc1', 'UACC-62 melanoma', 'TGI', '26.1 µM'),
  ('O=C(/C=C/C12c3ccccc3C(c3ccccc31)C1C(=O)NC(=O)C12)c1ccc(F)cc1 (stereo not given)', 'UACC-62 melanoma', 'TGI', '3.48 µM'),
  ('COC(=O)C(Br)C1CCc2ccccc21 (stereo not given)', 'UACC-62 melanoma', 'TGI', '> 100 µM'),
  ('O=C(c1ccccc1)C1C(c2ccccc2)N1S(=O)(=O)c1ccccc1 (stereo not given)', 'UACC-62 melanoma', 'TGI', '> 100 µM'),
  ('O=C1c2ccccc2C(=O)C1C(c1ccc(F)cc1)C1C(=O)c2ccccc2C1=O', 'UACC-62 melanoma', 'TGI', '> 100 µM'),
  ('C#CCN(N=O)C(=O)NCCCCC(NC(C)=O)C(=O)NCc1ccccc1 (stereo not given)', 'UACC-62 melanoma', 'TGI', '> 100 µM'),
  ('Oc1c(Cl)cc(Cl)cc1C(c1cc(Cl)cc(Cl)c1O)C(Cl)(Cl)Cl', 'UACC-62 melanoma', 'TGI', '10.6 µM'),
  ('Cc1cc(-c2ccccn2)cc(C)c1/C=C/c1cncc(-c2nn[nH]n2)c1', 'UACC-62 melanoma', 'TGI', '> 25 µM'),
  ('[N-]=[N+]=NCCCn1c2c(c3ccc([N+](=O)[O-])cc3c1=O)C(=O)c1cc(F)ccc1-2', 'UACC-62 melanoma', 'TGI', '3.55 µM');
